Each record here notes measured Amount of dissolved compound.
Test: Solubility measurement in diluting solvents
Type: physicochemical
Details: MeOH; 25° C., 100 rpm, 1 hour; 0.5 g of compound added

# count of solved cases: 2
CCN(CCOC(=O)NC1CCCCC1)c1ccc2c(-c3ccccc3S(=O)(=O)[O-])c3ccc(=[N+](CC)CC)cc-3oc2c1; >7% wt %
CCN(CCOC(=O)NC1CCCCC1)c1ccc2c(-c3ccccc3S(=O)(=O)[O-])c3cc/c(=[N+](/CC)CCOC(=O)NC4CCCCC4)cc-3oc2c1; >10% wt %

Turning now to a further record.
Q: For the compound shown here, "CCN(CCOC(=O)Nc1ccccc1)c1ccc2c(-c3ccccc3S(=O)(=O)[O-])c3ccc(=[N+](CC)CC)cc-3oc2c1" , give the reported Amount of dissolved compound.
Ans: >7% wt %

* * *

Test: Solubility measurement in diluting solvents
Assay type: physicochemical
Conditions: Cyclohexanone; 25° C., 100 rpm, 1 hour; 0.5 g of compound added
Experimental: 0.5 g of each compound according to Synthesis Examples 1 to 3 was respectively added to diluting solvents (MeOH, CH2Cl2, cyclohexanone), each solution was stirred with a rotary mixer (Mixrotar VMR-5, Iuchi Seieido Co., Ltd.) at 25° C. and 100 rpm for 1 hour, and then, the dissolution state of each compound (the amount of the compound dissolved in the solvents) was examined, and the results are provided in Table 1.
resultType: Amount of dissolved compound

Worked cases, answers included:
CCN(CCOC(=O)NC(C)(C)C)c1ccc2c(-c3ccccc3S(=O)(=O)[O-])c3cc/c(=[N+](/CC)CCOC(=O)NC(C)(C)C)cc-3oc2c1; 5% wt %
CCN(CCOC(=O)Nc1ccccc1)c1ccc2c(-c3ccccc3S(=O)(=O)[O-])c3ccc(=[N+](CC)CC)cc-3oc2c1; 2% wt %
CCN(CCOC(=O)Nc1ccccc1)c1ccc2c(-c3ccccc3S(=O)(=O)[O-])c3cc/c(=[N+](/CC)CCOC(=O)Nc4ccccc4)cc-3oc2c1; 3% wt %
CCN(CCOC(=O)NC1CCCCC1)c1ccc2c(-c3ccccc3S(=O)(=O)[O-])c3cc/c(=[N+](/CC)CCOC(=O)NC4CCCCC4)cc-3oc2c1; 5% wt %
CCN(CCOC(=O)NC(C)(C)C)c1ccc2c(-c3ccccc3S(=O)(=O)[O-])c3ccc(=[N+](CC)CC)cc-3oc2c1; 3% wt %

Pending compound:
Q: Find the recorded Amount of dissolved compound belonging to "CCN(CCOC(=O)NC1CCCCC1)c1ccc2c(-c3ccccc3S(=O)(=O)[O-])c3ccc(=[N+](CC)CC)cc-3oc2c1" and report it.
Ans: 3% wt %

* * *

Assay: Solubility measurement in diluting solvents
Assay type: physicochemical
Details: CH2Cl2; 25° C., 100 rpm, 1 hour; 0.5 g of compound added
resultType: Amount of dissolved compound

Here is how some compounds turned out for Amount of dissolved compound.
CCN(CCOC(=O)NC(C)(C)C)c1ccc2c(-c3ccccc3S(=O)(=O)[O-])c3ccc(=[N+](CC)CC)cc-3oc2c1 [Chemical Formula 5]; >7% wt %
CCN(CCOC(=O)NC1CCCCC1)c1ccc2c(-c3ccccc3S(=O)(=O)[O-])c3ccc(=[N+](CC)CC)cc-3oc2c1 [Chemical Formula 6]; >7% wt %

Q: Any idea what Amount of dissolved compound was measured for CCN(CCOC(=O)Nc1ccccc1)c1ccc2c(-c3ccccc3S(=O)(=O)[O-])c3ccc(=[N+](CC)CC)cc-3oc2c1 [Chemical Formula 7] ?
Ans: >7% wt %

Q: So what's the measured Amount of dissolved compound for this one? CCN(CCOC(=O)Nc1ccccc1)c1ccc2c(-c3ccccc3S(=O)(=O)[O-])c3cc/c(=[N+](/CC)CCOC(=O)Nc4ccccc4)cc-3oc2c1 [Chemical Formula 10]
Ans: >10% wt %

Q: # lookup: Amount of dissolved compound of CCN(CCOC(=O)NC1CCCCC1)c1ccc2c(-c3ccccc3S(=O)(=O)[O-])c3cc/c(=[N+](/CC)CCOC(=O)NC4CCCCC4)cc-3oc2c1 [Chemical Formula 9]
Ans: >10% wt %

Q: Form field: reported Amount of dissolved compound of CCN(CCOC(=O)NC(C)(C)C)c1ccc2c(-c3ccccc3S(=O)(=O)[O-])c3cc/c(=[N+](/CC)CCOC(=O)NC(C)(C)C)cc-3oc2c1 [Chemical Formula 8]
Ans: >10% wt %

* * *

Test: Solubility measurement in diluting solvents
Assay type: physicochemical
Conditions: MeOH; 25° C., 100 rpm, 1 hour; 0.5 g of compound added
# Lookup of reported Amount of dissolved compound keyed by entry

Here's what some known entries look like.
CCN(CCOC(=O)Nc1ccccc1)c1ccc2c(-c3ccccc3S(=O)(=O)[O-])c3cc/c(=[N+](/CC)CCOC(=O)Nc4ccccc4)cc-3oc2c1; >10% wt %
CCN(CCOC(=O)NC(C)(C)C)c1ccc2c(-c3ccccc3S(=O)(=O)[O-])c3cc/c(=[N+](/CC)CCOC(=O)NC(C)(C)C)cc-3oc2c1; >10% wt %

# context switch: different compound, same Amount of dissolved compound
Q: Param item = "CCN(CCOC(=O)NC(C)(C)C)c1ccc2c(-c3ccccc3S(=O)(=O)[O-])c3ccc(=[N+](CC)CC)cc-3oc2c1" ; retrieve measured Amount of dissolved compound.
Ans: >7% wt %
